- Tested on: MS2 coat protein
- experiment.description: apparent KD of MS2 coat protein; designed switch direction (-1 OFF switch, 1 ON switch): -1; higher = weaker reporter binding
- assay.context: Eterna round: R95; input ligand: microRNA oligo, concentration not stated
Recorded measurements of apparent KD of MS2 coat protein, one per entry
quantity.name: apparent KD of MS2 coat protein (nM)

>>> assay_result("GACAAGGGAGGAUAUGCACAAGGGAUAUCUGACAUGCCGAUACAUGAGGAUCACCCAUGUAGAAGGCCCGAAUA [Oneser] (puzzle: Exclusion 2)")
12.5
>>> assay_result("AUCCUGUCAGGAUAUCUAGUUAAAUACAUGAGGAUCACCCAUGUCACUGGGCCGUCCUUAAGAGAAGGGACAGGCG [Edabe] (puzzle: Exclusion 5)")
34.5
>>> assay_result("AGUUGGCGAGGAUAUACAUGAGGAUCACCCAUGUGAAAGAGAAGAGUGAGGAAGAAAAGUAGAAGGCGCUGACA [Mat - Exclusion 3 - Mod of Salish D39] (puzzle: Exclusion 3)")
69.3
>>> assay_result("AGUAGGUCUACCUUGGUGGAUCUGCAUAAUGCAAGUGUUACAUGAGGAUCACCCAUGUCCUCAUUUGCUCGUCUUAU [JL turnoff v2 99.22] (puzzle: Sensor v3, turn-off variant 2)")
105
>>> assay_result("UCCUCACAUGAGGAUCACCCAUGUUAGGAUAUCUCGGUGCCCUGCAGGCAGUGGCACCAGAGAAGGAACGUGCA [Querra] (puzzle: Exclusion 1)")
18.8
>>> assay_result("UUAUUUAGUGUGAGGAUAUGCUGGUCGAUAGAUCAGCAGAAGGCACAUGAGGAUCACCCAUGUAAUAUAUUAAU [Mat - Exclusion 4 - JL Mod - D33] (puzzle: Brourd's mod of Exclusion 4)")
50
>>> assay_result("GUAAAGUGAGGAUAUGGUAAAUUAAUUAUUAAUUAAUUAAUCCAGAAGGCACAUGAGGAUCACCCAUGUAAUUG [Mat - Exclusion 4 - D86] (puzzle: Exclusion 4)")
22.2
>>> assay_result("GUGUGCAGAGGAUAUACAGAGGAAAAGAAAAGAGAAGGGAGACAUGAGGAUCACCCAUGUAGAAGGCUGAGUGU [Excluse me!! 20 - Jieux - Exclusion 2] (puzzle: Exclusion 2)")
63.4
>>> assay_result("AUAUUAAUAUAGGAUAUCGAAUUUAUAAAUUAUCGAGAAGGAUAAACAUGAGGAUCACCCAUGUGGUAUCAUGG [Mat - Exclusion 6 - JL Mod - D42] (puzzle: Exclusion 6)")
222
>>> assay_result("CAGUACUGAGGAUAUACAUGAGGAUCACCCAUGUGUUCCAGGUAGGAAACUAGCAAAAGUAGAAGGCAGUACUG [salish99_ex3_r3_078] (puzzle: Exclusion 3)")
20.2
>>> assay_result("AGUAGAUCUACGCUUGCGUGGAUCUGCAAUGCAGGUGUUACAUGAGGAUCACCCAUGUCCUCGUUUGCUCGUCUUAG [JL turnoff v2 99.11] (puzzle: Sensor v3, turn-off variant 2)")
508
>>> assay_result("UUUAAUUUUUUUUUUUUACAAGCUUUUUGCUCGUCUUAUACAUGAGGAUCACCCAUGUAAAUGGAGGGUAAAUUAUC [JMF 83] (puzzle: Sensor v3, turn-off variant 2)")
32
>>> assay_result("AUUUUGUCAGGAUAUGAGUAGUAGGACGAAAGUGUUAUUAUUUAGAAGGGACAUGAGGAUCACCCAUGUUCCUC [Bring Us a Shrubbery-03] (puzzle: Exclusion 4)")
12.1
>>> assay_result("UUUAUGUGAGGAUAUAGUACUCCUUCUAUUAUUUUUGAGUACUAGAAGGCACAUGAGGAUCACCCAUGUAGUAC [Ex4 - 3 - 38] (puzzle: Exclusion 4)")
22.1
>>> assay_result("UCAUACGGUGAGGAUAUCUCCACUAAAGUGUGAAGAGAAGGCGCUACAUGAGGAUCACCCAUGUCUAUGGGCAG [Ex-6 Malc#15] (puzzle: Exclusion 6)")
75
>>> assay_result("CAACUGUGAGGAUAUGGUGAGUAGUGCCUGAGCGCUGCUCACCAGAAGGCACAUGAGGAUCACCCAUGUAUAAC [Mat - Exclusion 4 - Mod of JL - D4] (puzzle: Exclusion 4)")
35.6
>>> assay_result("GGAAUACAUGAGGAUCACCCAUGUAAGGAUAUGCUGAAUAACACGGAAUAAUCGUGCAGCAGAAGGUACAAAGG [Mat - Mod of my Eli Mod D45] (puzzle: Exclusion 1)")
86.3
>>> assay_result("UUUAAUUUUUUUUUUUUACAAGCUUUUUGCUCGUCUUAUACAUGAGGAUCACCCAUGUAGGUGGGAAGUAAAUUAUC [JMF 57] (puzzle: Sensor v3, turn-off variant 2)")
97.5
>>> assay_result("AAGAAACAUGAGGAUCACCCAUGUGAGGAUAUGAGUAAGAAAAGAAAAGAAAGAAGAGUCAGAAGGCACAAAGG [salish99-ex1_r3_060] (puzzle: Exclusion 1)")
35.4
>>> assay_result("CUCGGGAGUCAGGAUAUCGGCACUUAUCAAUCACGAGAAGGGACGACAUGAGGAUCACCCAUGUGGGAAAAGAA [Ersoar] (puzzle: Exclusion 6)")
89.4
>>> assay_result("GGAAGACAUGAGGAUCACCCAUGUAAGGAUAUCGGAGGUAAGGGAGGAAGGAGAUAGGCGAGAAGGUACAGGUG [JR_Exclu1_Sub094] (puzzle: Exclusion 1)")
35.5

----------
- Tested on: MS2 coat protein
- experiment.description: apparent KD of MS2 coat protein; designed switch direction (-1 OFF switch, 1 ON switch): -1; higher = weaker reporter binding
- assay.context: input ligand: FMN 200 uM
Assign class by apparent KD of MS2 coat protein: not lower than 200 nM means y; lower than 200 nM means n.

>>> label_class("AACCUGAGGCUUUGCUUUAGGUUUACAUGAGGAUCACCCAUGUAGGAUAUGGUAGGCUUUGCUUACCAGAAGGACAUGAAAAUU [Mat - Exclusion NG 3 - Mod of JL - D28] (Eterna round: R96, puzzle: Exclusion NG 3)")
"y"
>>> label_class("GUGCGACAUGAGGAUCACCCAUGUCAGGAUAUAUAGAACGAUAACGAAAUCGUUAUCGGUAGAAGGGACGGUGA [Eternabot (L1) Solution 48] (Eterna round: R97, puzzle: Exclusion 1)")
"n"
>>> label_class("GCUAGGAAUGUCAGGAUAUGCAGAUCCUUGGAUCUGCAGAAGGGACAUGAGGAUCACCCAUGUGCUAACCUAGC [Mat - Exclusion 4 - JL Mod - D7] (Eterna round: R97, puzzle: Brourd's mod of Exclusion 4)")
"n"
>>> label_class("AUAUUGUGAGGAUAUGAACUUAGUAACGAAAGAUACUAAGUUCAGAAGGCACAUGAGGAUCACCCAUGUUUCUC [Long static hairpin v11] (Eterna round: R97, puzzle: Exclusion 4)")
"y"
>>> label_class("UUAUUAUAUGUAGGAUAUGCAUAUUGUUGUUAUGCAGAAGGACAUGAGGAUCACCCAUGUAUAUUAUUGUUAUGUAUUAUAUAU [Title] (Eterna round: R96, puzzle: Exclusion NG 1)")
"n"

----------
- Tested on: MS2 coat protein
- experiment.description: apparent KD of MS2 coat protein; higher = weaker reporter binding
- assay.context: Eterna round: R107; input ligand: theophylline 20 uM
quantity.name: apparent KD of MS2 coat protein (nM)

>>> assay_result("GCGAACGGACCGUUGCCUUCCUGUGUGCGGCGAGGACCGGUACGGCCGCCACUCGACUGCGUACAUGAGGAUCACCCAUGUUAGA [theeternabot_exclusion_MS2_Trp_A_16]")
40.2
>>> assay_result("GCACGAGUAAGACCUGACUUCAACAAUGAUACCAGACUAGUAAACGUCCCUUGGCAGCAUCAGACAUGAGGAUCACCCAUGUGGC [theeternabot_exclusion_MS2_Theo_A_44]")
39.1
>>> assay_result("AGCACUGUGACGGCCGCCACUACAUAUAGGGUGGUCAGGUUCAUAAUACAUGAGGAUCACCCAUGUAGGACCGGGUCUCAGUGCA [Omei Trp Exc B A v5]")
14.6
>>> assay_result("UCGCUCGCCGGAAGGCGAGCGAGUUGCGAUACCAGCCCGGAAACGGGCCCUUGGCAGCGCACAUGAGGAUCACCCAUGUCAUGUU [#1 Exclusion - Theophylline A Attempt #6 (HarryS)]")
27.5
>>> assay_result("UGUCAGCGAAAGUUGACAUGUUGAACCGGUCGAGGACCGGUACGGCCGCCACUCGAUCUCUCGUACAUGAGGAUCACCCAUGUCG [SS Tryp A #18]")
14
>>> assay_result("CCCAGUUAUAACAAAGGAAUUAUACUCGAAGGAGCGUCAUAGUAGGCAGGUAGGUCGCGAGACAUGAGGAUCACCCAUGUAGAGA [k,lmullin]")
56.3
>>> assay_result("AUUAACAUGAGGAUCACCCAUGUUCUCACACGAGGACCGGUACGGCCGCCACUCGGUUUGGUAUUGGUCACUAGGCAGUUAGGAG [theeternabot_sameState_MS2_Trp_A_12]")
26.7
>>> assay_result("UAAUCCGGUCCUCGAUAGGUGAUCCUCUAACGAGGACCGGUACGGCCGCCACUCGAUAACAUGAGGAUCACCCAUGUAAUAAUAA [|T'-M'-Trp-Ms2|_Design16]")
41.9
>>> assay_result("AGCAUGUUCAGAAGGAGCGUGCAAGGGUACAUUCGUAGGACAUGAGGAUCACCCAUGUAAGCACAGGUAGGUCGCUGGACAUGCU [Arg B SS t5]")
82.4
>>> assay_result("AACAUGAGGAUCACCCAUGUAUGUUCCGAAGGAGCGCCACAUGAGGCAGGUAGGUCGCGGGUACAUGAGGAUCACCCAUGUGUCA [Exclusion Arginine A 3]")
170
>>> assay_result("AAUAAUAAGAAUAACGUACCAGGUGAUCAACGAGGACCGGUACGGCCGCCACUCGAAACAUGAGGAUCACCCAUGUAAUAACAAU [|T'-M'-Trp-Ms2|_Design 2_OL]")
107
>>> assay_result("GAUAUGUUUCGAAGGAGCGGCCCUUGAUCCUCAUGAGACAUGAGGAUCACCCAUGUCUCGGGCCAGGUAGGUCGCGAAAUAUAUC [Astros-omei-mod4]")
32.1
>>> assay_result("GAUCCUCGUACGGAUACCAGCGACUAACAUGAGGAUCACCCAUGUGAUAAAGAAAAUAUUUGCCCUUGGCAGCCGAAUAGAUAGU [#21 Same State - Theophylline B]")
91.5
>>> assay_result("AGCCACUCGAGUGAUCCUCACGAGUGGCUACGAGGACCGGUACGGCCGCCACUCGAAUUAACAUGAGGAUCACCCAUGUAAUCUA [Brourdmod07]")
227
>>> assay_result("UUAAUCGUGCAUGAUACCAGUAUCCGUAGAUACAUGAGGAUCACCCAUGUCUGGUUGGAAUACCCUUGGCAGCAUGGGUUGAGGA [theeternabot_sameState_MS2_Theo_B_20]")
224
